From: PubChem BioAssay AID1918930

Below: a set of entries, each annotated with reported viability, T/C.
# System: 233499-124-R-J3-PDC complex spheroid viability, % test/control;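 note: spheroids exposed to agents for one week before readout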
# ASSAY METHOD TEXT: Anticancer human tumor 233499-124-R-J3-PDC patient-derived colon adenocarcinoma cell line growth inhibition
# CONDITION: second compound 0.1 µM; first compound 0.000949 µM; stronger effect = lower value
# From the text: Multicellular complex tumor spheroid response to LSD1 Inhibitor Iadademstat in combination with a variety of drugs and investigational agents in selected tumor cell lines The current study was undertaken to assess response to LSD1 inhibitors in combination with standard-of-care drugs and investigational agents in solid tumor complex spheroid models as well as in the K-562 leukemia. […] Compounds. […] If the clinical Cmax for an agent had not been determined, the highest concentration tested was 10 microM. […]
EXPERIMENTAL ENDPOINT: viability, T/C

1) Nc1ccn(C2OC(CO)C(O)C2(F)F)c(=O)n1 (stereo unspecified) + NC1CC1c1ccc(-c2cccc(O)c2)cc1: 111%
2) CCc1c2c(nc3ccc(O)cc13)-c1cc3c(c(=O)n1C2)COC(=O)[C@]3(O)CC + NC1CCC(NC2CC2c2ccccc2)CC1: 80.5%
3) CCc1c2c(nc3ccc(O)cc13)-c1cc3c(c(=O)n1C2)COC(=O)[C@]3(O)CC + NC1CC1c1ccc(-c2cccc(O)c2)cc1: 88%
4) Nc1ccn(C2OC(CO)C(O)C2(F)F)c(=O)n1 (stereo unspecified) + NC1CCC(NC2CC2c2ccccc2)CC1: 100%
5) Nc1ncn(C2CC(O)C(CO)S2)c(=O)n1 (stereo unspecified) + NC1CC1c1ccc(-c2cccc(O)c2)cc1: 95.5%
6) Nc1ncn(C2CC(O)C(CO)S2)c(=O)n1 (stereo unspecified) + NC1CCC(NC2CC2c2ccccc2)CC1: 110%
